# credit: patent EP4786492A1

MFI overview
Subject Of Test: human DLL3 protein expressed on CHO-K1 recombinant cells (human DLL3 extracellular segment fused to EpCAM transmembrane and intracellular regions) (human) (UniProt Q9NYJ7)
Sequence (Q9NYJ7 other isoform, or with tags, fused parts or gaps limits assumed): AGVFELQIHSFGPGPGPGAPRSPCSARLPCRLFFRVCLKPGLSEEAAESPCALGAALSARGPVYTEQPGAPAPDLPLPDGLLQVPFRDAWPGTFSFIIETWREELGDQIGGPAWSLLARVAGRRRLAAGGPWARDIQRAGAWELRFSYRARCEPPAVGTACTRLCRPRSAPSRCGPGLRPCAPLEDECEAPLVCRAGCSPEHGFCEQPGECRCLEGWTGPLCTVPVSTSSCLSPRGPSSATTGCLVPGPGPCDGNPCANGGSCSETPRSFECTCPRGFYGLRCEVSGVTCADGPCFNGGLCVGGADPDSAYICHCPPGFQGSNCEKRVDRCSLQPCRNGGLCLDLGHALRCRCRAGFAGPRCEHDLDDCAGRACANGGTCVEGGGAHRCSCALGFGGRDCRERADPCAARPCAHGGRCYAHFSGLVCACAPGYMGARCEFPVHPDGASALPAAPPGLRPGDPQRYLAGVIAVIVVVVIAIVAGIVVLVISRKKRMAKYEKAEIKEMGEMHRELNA
Protocol Details: FACS, CHO-K1 hDLL3 cells, 0.032 nM antibody
Report the value in MFI with no unit label.

Query: Using the record for Hab008L1H5-hFc (scFv, part only; not given: VL-VH linker and human IgG1 Fc, V domains shown, not shown: another chain or arm of the molecule; a dimerising Fc or GST; small tags and cut ends) VL: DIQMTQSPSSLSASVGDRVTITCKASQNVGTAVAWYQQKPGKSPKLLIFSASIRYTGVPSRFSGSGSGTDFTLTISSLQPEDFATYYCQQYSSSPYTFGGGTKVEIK VH: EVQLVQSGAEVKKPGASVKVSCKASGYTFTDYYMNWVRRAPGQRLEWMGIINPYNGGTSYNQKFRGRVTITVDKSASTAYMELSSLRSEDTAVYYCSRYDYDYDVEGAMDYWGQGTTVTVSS , report its MFI.
Response: 221

Query: Request the reported MFI associated with Hab014VL3VH1-hFc (scFv, part only; not given: VL-VH linker and human IgG1 Fc, V domains shown, not shown: another chain or arm of the molecule; a dimerising Fc or GST; small tags and cut ends) VL: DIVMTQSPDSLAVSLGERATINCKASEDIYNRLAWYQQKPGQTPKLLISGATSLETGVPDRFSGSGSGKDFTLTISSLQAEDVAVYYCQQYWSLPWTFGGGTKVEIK VH: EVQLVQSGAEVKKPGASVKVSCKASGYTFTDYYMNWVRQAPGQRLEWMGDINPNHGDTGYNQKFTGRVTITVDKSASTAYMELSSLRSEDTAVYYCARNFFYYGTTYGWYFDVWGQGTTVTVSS
Response: 555
